Reference source: patent US20240415914A1

- ASSAY: Stability of cannabinoid and Vitamin E components of Beverage 2 (AB Red) stored at 8° C. and 21-25° C., LCMSMS over 570 days
- STUDY_CONDITIONS: 8° C., 300 days
RESULT_TYPE: Stability of Cannabinoids in AB Red (µg/mL)
Quick note: give the figure in µg/mL, leave out the unit.

Exercise: Answer with the recorded Stability of Cannabinoids in AB Red for the compound listed here: CCCc1cc(O)c2c(c1)OC(C)(C)[C@@H]1CCC(C)=C[C@@H]21 [THCV, delta-9-tetrahydrocannabivarin]
Key: 3.15

Exercise: Answer with the recorded Stability of Cannabinoids in AB Red for the compound listed here: CCCCCc1cc2c(c(O)c1C(=O)O)[C@@H]1C=C(C)CC[C@H]1C(C)(C)O2 [D9 THCA, delta-9-tetrahydrocannabinolic acid]
Key: 1.30

Exercise: Answer with the recorded Stability of Cannabinoids in AB Red for the compound listed here: CCCCCc1cc(O)c2c(c1)OC(C)(CCC=C(C)C)C=C2 (stereo not drawn)
Key: 0.280

Exercise: Answer with the recorded Stability of Cannabinoids in AB Red for the compound listed here: C=C(C)[C@@H]1CCC(C)=C[C@H]1c1c(O)cc(CCCCC)c(C(=O)O)c1O
Key: 1.65

Exercise: Answer with the recorded Stability of Cannabinoids in AB Red for the compound listed here: CCCCCc1cc(O)c2c(c1)OC1(C)CCC3C1C2C3(C)C (stereo not drawn)
Key: 0.489

Exercise: Answer with the recorded Stability of Cannabinoids in AB Red for the compound listed here: CCCCCc1cc(O)c2c(c1)OC(C)(C)[C@@H]1CCC(C)=C[C@@H]21 [D9 THC, delta-9-tetrahydrocannabinol, reference compound]
Key: 12.4

Exercise: Answer with the recorded Stability of Cannabinoids in AB Red for the compound listed here: CCCCCc1cc(O)c2c(c1)OC(C)(C)c1ccc(C)cc1-2
Key: 2.75

Exercise: Answer with the recorded Stability of Cannabinoids in AB Red for the compound listed here: C=C(C)[C@@H]1CCC(C)=C[C@H]1c1c(O)cc(CCC)cc1O
Key: 0.193

Exercise: Answer with the recorded Stability of Cannabinoids in AB Red for the compound listed here: CCCCCc1cc(O)c(C/C=C(\C)CCC=C(C)C)c(O)c1
Key: 4.70
